assay: Dark toxicity in mouse B16F10 cells assessed as cell viability after 48 hrs by cell counting kit-8 based spectrophotometric analysis; design: species or system B16-F10; conditions: mouse, B16F10 cells
Readings of IC50 at 48 h for the listed compounds

>>> result("CCC1=C(C)c2cc3[nH]c(cc4nc(c(C(=O)OC)c5[nH]c(cc1n2)c(C)c5C(=O)OC)C(CCC(=O)N[C@@H](CC(=O)O)C(=O)O)=C4C)[C@@]1(C)C3=CC=C(C(=O)OC)[C@H]1C(=O)OC")
"271 µM"
>>> result("C=Cc1c(C)c2cc3nc(c(C(=O)OC)c4[nH]c(cc5nc(cc1[nH]2)C(C)=C5CC)c(C)c4C(=O)OC)[C@@H](CCC(=O)O)[C@@H]3C")
"15.7 µM"

We now examine a further compound.
Could you share which IC50 at 48 h value was measured for "CCC1=C(C)c2cc3[nH]c(cc4nc(c(C(=O)OC)c5[nH]c(cc1n2)c(C)c5C(=O)OC)C(CCC(=O)O)=C4C)[C@@]1(C)C3=CC=C(C(=O)OC)[C@H]1C(=O)OC" ?
15.3 µM

* * *

experiment: Dark toxicity in human A375 cells assessed as cell viability after 48 hrs by cell counting kit-8 based spectrophotometric analysis; set-up: species or system A-375; details: human, A375 cells
Readings of IC50 at 48 h for the listed molecules

>>> result("C=Cc1c(C)c2cc3nc(c(C(=O)OC)c4[nH]c(cc5nc(cc1[nH]2)C(C)=C5CC)c(C)c4C(=O)OC)[C@@H](CCC(=O)N[C@@H](CC(=O)O)C(=O)O)[C@@H]3C")
"> 300 µM"
>>> result("CCC1=C(C)c2cc3[nH]c(cc4nc(c(C(=O)OC)c5[nH]c(cc1n2)c(C)c5C(=O)OC)C(CCC(=O)N[C@@H](CC(=O)O)C(=O)O)=C4C)[C@@]1(C)C3=CC=C(C(=O)OC)[C@H]1C(=O)OC")
"> 300 µM"

Could you share which IC50 at 48 h value was measured for "C=Cc1c(C)c2cc3nc(c(C(=O)OC)c4[nH]c(cc5nc(cc1[nH]2)C(C)=C5CC)c(C)c4C(=O)OC)[C@@H](CCC(=O)N[C@@H](CCC(=O)O)C(=O)O)[C@@H]3C" ?
> 300 µM

* * *

assay: Ratio of IC50 for dark toxicity to IC50 for phototoxicity in human A375 cells; format: cell-based, A-375; settings: A375 cells, read-out: Ratio IC50
Readings of selectivity ratio for the listed compounds

Here's what some known entries look like.
>>> result("CCC1=C(C)c2cc3[nH]c(cc4nc(c(C(=O)OC)c5[nH]c(cc1n2)c(C)c5C(=O)OC)C(CCC(=O)N[C@@H](CC(=O)O)C(=O)O)=C4C)[C@@]1(C)C3=CC=C(C(=O)OC)[C@H]1C(=O)OC")
"> 99.3"
>>> result("C=Cc1c(C)c2cc3nc(c(C(=O)OC)c4[nH]c(cc5nc(cc1[nH]2)C(C)=C5CC)c(C)c4C(=O)OC)[C@@H](CCC(=O)N[C@@H](CCC(=O)O)C(=O)O)[C@@H]3C")
"> 195"

We now examine a further compound.
Could you share which selectivity ratio value was measured for "C=Cc1c(C)c2cc3nc(c(C(=O)OC)c4[nH]c(cc5nc(cc1[nH]2)C(C)=C5CC)c(C)c4C(=O)OC)[C@@H](CCC(=O)N[C@@H](CC(=O)O)C(=O)O)[C@@H]3C" ?
> 306
